experiment: Clearance in Candida albicans MY1055 infected iv dosed DBA/2 mouse; type: ADME, organism-based; conditions: in vivo

>  <Molecule>
CCCCCCCCCCCCC(C)C1CC(=O)N[C@@H](C)C(=O)NC(CCO)C(=O)N[C@@H](CCC(=O)O)C(=O)NCC(=O)N[C@@H](CO)C(=O)N[C@H](CC(N)=O)C(=O)N[C@H]([C@H](C)O)C(=O)NC(CCO)C(=O)O1 (stereo partly specified) [PHOMAFUNGIN]

>  <Units Symbol>
mL/min/kg

>  <clearance>
6.15

$$$$

----------
assay: Toxicity against human GTL16 cells; assay type: cell-based, GTL 16
pIC50: −log10 of the molar value.
Measured Attribute: pIC50

>  <Compound>
CCCCCCCCCCCCC(C)C1CC(=O)N[C@@H](C)C(=O)NC(CCO)C(=O)N[C@@H](CCC(=O)O)C(=O)NCC(=O)N[C@@H](CO)C(=O)N[C@H](CC(N)=O)C(=O)N[C@H]([C@H](C)O)C(=O)NC(CCO)C(=O)O1 (stereo partly specified)

>  <Measured Attribute>
pIC50

>  <Observed Value>
4.59

$$$$

----------
test: Half life in Candida albicans MY1055 infected iv dosed DBA/2 mouse; format: ADME, organism-based; settings: in vivo
Measured Attribute: half-life (h)

>  <Compound>
CCCCCCCCCCCCC(C)C1CC(=O)N[C@@H](C)C(=O)NC(CCO)C(=O)N[C@@H](CCC(=O)O)C(=O)NCC(=O)N[C@@H](CO)C(=O)N[C@H](CC(N)=O)C(=O)N[C@H]([C@H](C)O)C(=O)NC(CCO)C(=O)O1 (stereo partly specified)

>  <Units Symbol>
h

>  <Observed Value>
1.8

$$$$

----------
test: Toxicity against human PC3 cells; format: cell-based, PC-3
pIC50: −log10 of the molar value.

>  <Compound>
CCCCCCCCCCCCC(C)C1CC(=O)N[C@@H](C)C(=O)NC(CCO)C(=O)N[C@@H](CCC(=O)O)C(=O)NCC(=O)N[C@@H](CO)C(=O)N[C@H](CC(N)=O)C(=O)N[C@H]([C@H](C)O)C(=O)NC(CCO)C(=O)O1 (stereo partly specified) [PHOMAFUNGIN]

>  <pIC50>
4.72

$$$$
